The following compounds are listed with their measured growth values.
Tested on: SF-268 CNS
Experiment: NCI-60 one-dose screen, 48 h (100 = growth as untreated, 0 = no growth, -100 = all killed)
Settings: 10 µM unless noted
Compounds without any hit were thinned out: in the full panel of roughly 83,000, 20% have a hit. Activity calls are given as the source filed them. Rule for the calls: active = growth percent below 10; inactive = the rest.
Measurement Type: growth

compound=Cc1c(N2CCCCC2)[nH]c2ccccc12 reported_result="117% (inactive)"
compound="Nc1nc(N)c2c(n1)NC(c1ccc3c(c1)OCO3)CC(c1cccc(Nc3ccncc3)c1)=N2 (configuration not stated)" reported_result="68.1% (inactive)"
compound=Cn1cc(-c2nc(-c3c[nH]c4c(Cl)nccc34)cs2)c2ccccc21 reported_result="98.5% (inactive)"
compound="CCN1C(=O)N(CC)C2C1NC(=S)N2/N=C/C=C/c1ccccc1 (configuration not stated)" reported_result="20.8% (inactive)"
compound=COc1cc(/C=N/NC(=O)c2ccc3nc(-c4ccc(Cl)cc4)[nH]c3c2)cc(OC)c1OC reported_result="79.7% (inactive)"
compound=O=C1/C(=C/c2ccc(-c3ccc(Cl)cc3)o2)SC(=S)N1CCc1ccc(O)cc1 reported_result="31.2% (inactive)"
compound=c1ccc(Cn2cc3c(c2)-c2nc(Nc4ccccc4)ncc2CC3)cc1 reported_result="76.9% [100 µM] (inactive)"
compound=Nc1n[nH]c2cccc(C#Cc3cccc(C(=O)Nc4ccc(Cl)c(C(F)(F)F)c4)c3)c12 reported_result="61.7% (inactive)"
compound=COc1ccc(-c2cc(-c3ccc(Cl)cc3)c(C#N)c(=O)n2CCCCC(=O)NO)cc1 reported_result="85.2% (inactive)"
compound=CN1CCN(Cn2nc(-c3cc(Cl)cc(Cl)c3Cl)oc2=S)CC1 reported_result="109% (inactive)"
compound=c1ccc2[nH]c(-c3ccc(-c4nccc5c4[nH]c4ccccc45)cc3)nc2c1 reported_result="52.3% (inactive)"
compound=O=[N+]([O-])c1ccc(N/N=C\c2cc(Cl)ccc2O)nc1 reported_result="33.3% (inactive)"
compound=C=C(c1ccc(C(=O)O)c(F)c1)c1cc2c(cc1C)C(C)(C)C=CC2(C)C reported_result="74.3% (inactive)"
compound="CCCN1C(=O)N(CCC)C2C1NC(=S)N2/N=C/C=C/c1ccccc1OC (configuration not stated)" reported_result="62.9% (inactive)"
compound=C=C1C(=O)O[C@H]2[C@H]1CC/C(CNC(=O)/C=C/c1cc(OC)c(OC)c(OC)c1)=C\CC[C@@]1(C)O[C@@H]21 reported_result="28.1% (inactive)"
compound=Cc1nc2c(c(-c3ccccc3)n1)Cc1c(ccc3ccccc13)O2 reported_result="94.8% (inactive)"
compound=CC(=O)Cc1nsc(NC(=O)c2cc(-c3cc(Cl)ccc3Cl)oc2C)n1 reported_result="98.8% (inactive)"
compound=O=C(O)COc1ccc(F)cc1 reported_result="93.6% (inactive)"
compound="CCN1C(=O)N(CC)C2C1NC(=S)N2/N=C/C=C/c1cccs1 (configuration not stated)" reported_result="66.2% (inactive)"
compound=COc1ccc(CNc2ccc3nc(CCC4CCCCC4)[nH]c3c2)cc1 reported_result="71.4% (inactive)"
compound="O=C1C2C(c3cccs3)C=C(c3ccc(Cl)cc3)N2C(=S)N1c1ccccc1 (configuration not stated)" reported_result="96.7% (inactive)"
compound=CCN(CC)CCOc1ccc(/C(=C(\C)Cc2ccc(OC)cc2)c2ccc(O)cc2)cc1 reported_result="47.9% (inactive)"

From: PubChem BioAssay (NCI)
